Recorded cell proliferation, one value per entry.
test system: A549 cell line; experiment: MTT cytotoxicity assay; type: cell-based; settings: A549, 24h, 50 µM, Repeat No 2

{"structure_smiles": "O=C(N/N=C/c1cc(Cl)cc(I)c1O)c1cccc(I)c1", "units_of_measure": "%", "cell proliferation": 87}
{"structure_smiles": "O=C(N/N=C/c1cc(Br)cc(Br)c1O)c1cccc(I)c1", "units_of_measure": "%", "cell proliferation": 101}
{"structure_smiles": "O=C(N/N=C/c1cc(I)cc(I)c1O)c1ccccc1I", "units_of_measure": "%", "cell proliferation": 84}
{"structure_smiles": "O=C(N/N=C/c1cc(Cl)cc(I)c1O)c1ccc(I)cc1", "units_of_measure": "%", "cell proliferation": 87}
